tgt: IDH1/R132C (Homo sapiens, UniProt O75874, R132C)
Construct: the fibrosarcoma cell HT-1080 containing the IDH1/R132C mutation; endogenous in cells; host or cells: HT-1080 fibrosarcoma cells
Sequence (O75874 2-414 R132C limits assumed): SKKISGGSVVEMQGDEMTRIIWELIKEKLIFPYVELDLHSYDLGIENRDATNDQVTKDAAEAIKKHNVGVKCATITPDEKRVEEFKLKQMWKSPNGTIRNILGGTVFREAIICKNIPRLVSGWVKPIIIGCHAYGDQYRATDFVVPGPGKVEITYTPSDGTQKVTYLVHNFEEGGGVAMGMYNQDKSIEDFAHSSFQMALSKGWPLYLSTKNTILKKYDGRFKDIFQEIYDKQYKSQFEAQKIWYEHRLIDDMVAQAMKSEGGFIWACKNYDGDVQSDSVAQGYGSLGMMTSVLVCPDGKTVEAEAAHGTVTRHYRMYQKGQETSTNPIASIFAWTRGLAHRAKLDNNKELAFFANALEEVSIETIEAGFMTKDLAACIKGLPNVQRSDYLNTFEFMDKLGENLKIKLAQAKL
experimental.details: Inhibitory activity against mutant IDH1/R132C at the cellular level (extracellular 2-HG, HT-1080 cells)
Type: cell-based
measurement.setup: fibrosarcoma cell HT-1080 containing IDH1/R132C, 2-HG in culture medium; read-out: IC50 (nM), inhibitory activity against IDH1/R132C
property.measured: IC50

- CC(C)[C@H]1COC(=O)N1c1ccnc(N[C@@H](C)c2ccc(OCCOCCOCCOCCOc3ccc([C@H](C)Nc4nccc(N5C(=O)OC[C@@H]5C(C)C)n4)nc3)cn2)n1 [Compound 2]: < 5 nM
- CC(C)[C@H]1COC(=O)N1c1ccnc(N[C@@H](C)c2ccc(OCCOCCOCCOc3ccc([C@H](C)Nc4nccc(N5C(=O)OC[C@@H]5C(C)C)n4)nc3)cn2)n1 [Compound 1]: < 5 nM

----------
tgt: IDH1/R132H (Homo sapiens, UniProt O75874, R132H)
Construct: expressed in transfected cells; host or cells: U87MG glioma cells
Sequence (O75874 whole entry R132H): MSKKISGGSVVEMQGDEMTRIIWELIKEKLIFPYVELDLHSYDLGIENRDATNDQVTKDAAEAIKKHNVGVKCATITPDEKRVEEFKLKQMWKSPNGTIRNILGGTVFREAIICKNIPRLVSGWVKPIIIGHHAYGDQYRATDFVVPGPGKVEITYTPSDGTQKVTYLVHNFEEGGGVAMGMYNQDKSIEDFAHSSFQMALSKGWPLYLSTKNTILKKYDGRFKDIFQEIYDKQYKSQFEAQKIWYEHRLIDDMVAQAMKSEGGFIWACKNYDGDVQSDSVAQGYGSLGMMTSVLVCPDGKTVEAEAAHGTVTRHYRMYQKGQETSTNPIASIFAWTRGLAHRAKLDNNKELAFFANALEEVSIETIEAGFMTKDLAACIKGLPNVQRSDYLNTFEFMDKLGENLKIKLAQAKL
experimental.details: Inhibitory activity against mutant IDH1/R132H at the cellular level (extracellular 2-HG, U87MG cells)
Assay type: cell-based
measurement.setup: glioma cell U87MG overexpressing IDH1/R132H, 2-HG in culture medium; read-out: IC50, inhibitory activity against IDH1/R132H
property.measured: IC50

* CC(C)[C@H]1COC(=O)N1c1ccnc(N[C@@H](C)c2ccc(OCCOCCOCCOc3ccc([C@H](C)Nc4nccc(N5C(=O)OC[C@@H]5C(C)C)n4)nc3)cn2)n1 | ≤ 5 nM
* CC(C)[C@H]1COC(=O)N1c1ccnc(N[C@@H](C)c2ccc(OCCOCCOCCOCCOc3ccc([C@H](C)Nc4nccc(N5C(=O)OC[C@@H]5C(C)C)n4)nc3)cn2)n1 | ≤ 5 nM
